system-tested: T1, ZFP SBS#1348 (synthetic)
T1 chain: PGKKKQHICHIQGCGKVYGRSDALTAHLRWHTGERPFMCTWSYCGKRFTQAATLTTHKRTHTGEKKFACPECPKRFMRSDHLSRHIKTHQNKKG
run-description: EMSA
study-conditions: tags: MBP fusion
attribute-measured: Kd (nM)
The reply should contain only the number, in nM.

The recorded Kd for entry GGGTCACTG (dsDNA) DNA 1: GGGTCACTG DNA 2: CAGTGACCC equals 2.58
